This listing pairs molecules with measured GI50.
system: SF-539; test: Cytotoxicity against human SF539 cells; assay type: functional
The reply should be a number in µM, with the unit left off.

[
  {
    "given.smiles": "COc1ccc2c(c1)C(=O)c1c-2n(CCCCl)c(=O)c2cc(OC)c(OC)cc12",
    "GI50 / µM": 6.76
  },
  {
    "given.smiles": "CCOc1ccc2c(c1)C(=O)c1c-2n(CCCBr)c(=O)c2cc([N+](=O)[O-])ccc12",
    "GI50 / µM": 5.62
  },
  {
    "given.smiles": "CCOc1ccc2c(c1)C(=O)c1c-2n(CCCN=[N+]=[N-])c(=O)c2cc([N+](=O)[O-])ccc12",
    "GI50 / µM": 3.89
  }
]

Item: `CCc1ccc2c(c1)C(=O)c1c-2n(CCCN=[N+]=[N-])c(=O)c2cc(OC)c(OC)cc12` | GI50: 57.5

Consider `COC(=O)c1ccc2c(c1)C(=O)c1c-2n(CCCCl)c(=O)c2cc([N+](=O)[O-])ccc12` . Its measured GI50 is 83.2

Lookup result for `CCOc1ccc2c(c1)C(=O)c1c-2n(CCCN)c(=O)c2cc([N+](=O)[O-])ccc12` ; measured GI50: 0.035

The reported GI50 of the molecule `COC(=O)c1ccc2c(c1)C(=O)c1c-2n(CCCN)c(=O)c2cc(OC)c(OC)cc12` was 15.8

Entry `Cc1ccc2c(c1)C(=O)c1c-2n(CCCN)c(=O)c2cc([N+](=O)[O-])ccc12` ; GI50 = 0.603

Memo: `[N-]=[N+]=NCCCn1c2c(c3ccc([N+](=O)[O-])cc3c1=O)C(=O)c1cc(F)ccc1-2` , reported GI50: 0.457

The molecule `COc1cc2c3c(n(CCCN=[N+]=[N-])c(=O)c2cc1OC)-c1ccc(F)cc1C3=O` showed GI50 equal to 3.24

The recorded GI50 for entry `COc1ccc2c(c1)C(=O)c1c-2n(CCCCl)c(=O)c2cc([N+](=O)[O-])ccc12` equals 0.027
